Record: pIC50 reported on c-KIT kinase (uKIT) (Homo sapiens (Human), UniProt P10721).
Sequence (P10721 other isoform, or with tags, fused parts or gaps): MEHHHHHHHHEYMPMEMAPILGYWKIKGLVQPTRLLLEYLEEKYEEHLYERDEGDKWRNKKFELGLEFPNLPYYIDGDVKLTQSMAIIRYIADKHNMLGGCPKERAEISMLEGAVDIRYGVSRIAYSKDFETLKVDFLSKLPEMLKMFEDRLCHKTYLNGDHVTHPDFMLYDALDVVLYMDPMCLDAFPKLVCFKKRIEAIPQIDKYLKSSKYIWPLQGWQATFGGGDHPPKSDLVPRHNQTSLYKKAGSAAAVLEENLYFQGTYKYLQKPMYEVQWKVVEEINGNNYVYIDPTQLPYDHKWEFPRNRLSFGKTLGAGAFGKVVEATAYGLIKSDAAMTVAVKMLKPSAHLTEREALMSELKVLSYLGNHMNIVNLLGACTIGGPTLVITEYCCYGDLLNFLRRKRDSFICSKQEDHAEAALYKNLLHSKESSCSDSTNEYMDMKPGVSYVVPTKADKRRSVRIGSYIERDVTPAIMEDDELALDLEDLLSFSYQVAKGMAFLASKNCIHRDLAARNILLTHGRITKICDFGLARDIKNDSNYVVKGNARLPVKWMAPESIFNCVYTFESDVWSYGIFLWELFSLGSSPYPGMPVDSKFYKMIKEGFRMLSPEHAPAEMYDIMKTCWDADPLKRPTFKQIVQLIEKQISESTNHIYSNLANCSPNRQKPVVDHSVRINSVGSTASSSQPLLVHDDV
pIC50: −log10 of the molar value.

What value of pIC50 has been reported for the following compound? COCCOc1cc(F)c2c(Nc3ccc(NC(=O)NCCC(C)(C)F)cc3)ncnc2c1
≥ 8.00

What value of pIC50 has been reported for the following compound? COCCOc1cc(F)c2c(Nc3ccc(NC(=O)CC(=O)N4CCCCC4(C)C)cc3)ncnc2c1
7.00 to 8.00

What value of pIC50 has been reported for the following compound? COCCOc1cc(F)c2c(Nc3ccc(NC(=O)CC(=O)N[C@H]4C[C@H](OC)C4)cc3)ncnc2c1
6.00 to 7.00

What value of pIC50 has been reported for the following compound? COCCOc1cc(F)c2c(Nc3ccc(NC(=O)CC(=O)NCCN(C)C)cc3)ncnc2c1
< 6.00

What value of pIC50 has been reported for the following compound? COCCOc1cc(F)c2c(Nc3ccc(NC(=O)NCCC4CC4)cc3)ncnc2c1
≥ 8.00

What value of pIC50 has been reported for the following compound? CC(C)(F)CCNC(=O)Nc1ccc(Nc2ncnc3cc(OCC(=O)O)cc(F)c23)cc1
7.00 to 8.00

What value of pIC50 has been reported for the following compound? COCCOc1cc(F)c2c(Nc3ccc(NC(=O)COCCC(C)C)cc3)ncnc2c1
≥ 8.00

What value of pIC50 has been reported for the following compound? COCCOc1ccc2c(Nc3ccc(NC(=O)NCCC(C)(C)OC)cn3)ncnc2c1
7.00 to 8.00

What value of pIC50 has been reported for the following compound? COCCOc1cc(F)c2c(Nc3ccc(NC(=O)NCCC(C)(C)C#N)c(F)c3)ncnc2c1
≥ 8.00

Reference for the values: patent US20240116877A1
